These data points were gathered from the supplement of paper PMC12494721.

test system: Clostridium sporogenes DSM 1664; assay: fold change of Tryptamine concentration vs plate DMSO controls (fold change (ratio)); higher = more amine produced, active = hit call of the paper (significant change in both replicates, either direction); conditions: incubation time: 27 h, anaerobic, 37 °C;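 for the amine columns active = adjusted P below 0.05 in both replicates with a change the same way and a mean fold change under 0.8 or over 1.25; inactive = the rest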
Where a name gives a salt, the structure may show the parent alone.
Outcomes: yes for active, no for inactive

| molecule | label |
| --- | --- |
| C=CCN1CCCC1CNC(=O)c1cc2nn[nH]c2cc1OC (stereo not given) [Alizapride hydrochloride] (20 µM) | no |
| CCC1(c2ccccc2)NC(=O)N(C)C1=O (stereo not given) [Mephenytoin] (20 µM) | no |
| CCN1CCN(c2cc3c(cc2F)c(=O)c(C(=O)O)cn3C2CC2)CC1 [Enrofloxacin] (20 µM) | yes |
| O=C1CCc2cc(OCCCCc3nnnn3C3CCCCC3)ccc2N1 [Cilostazol] (20 µM) | no |
| CN(C)CCOC(=O)COc1ccc(Cl)cc1 [Meclofenoxate hydrochloride] (20 µM) | no |

###

tested on: Clostridium sporogenes DSM 1664; assay: fold change of Tryptamine concentration vs plate DMSO controls (fold change (ratio)); higher = more amine produced, active = hit call of the paper (significant change in both replicates, either direction); settings: incubation time: 27 h, anaerobic, 37 °C;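 for the amine columns active = adjusted P below 0.05 in both replicates with a change the same way and a mean fold change under 0.8 or over 1.25; inactive = the rest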
Where a name gives a salt, the structure may show the parent alone.
Outcomes: label 1 (active), label 0 (inactive)

| compound | label |
| --- | --- |
| Cc1ccc(S(=O)(=O)NCl)cc1 [Chloramine-T hydrate] (20 µM) | label 0 |
| S=C([S-])NCCNC(=S)[S-].S=C([S-])NCCNC(=S)[S-].[Mn+2].[Zn+2] (20 µM) | label 0 |
| O=C1c2cccc3c2[C@H](CCC3)CN1[C@@H]1CN2CCC1CC2 [Palonosetron hydrochloride] (20 µM) | label 0 |
| CC1(C)[C@@H](OC(=O)CCC(=O)O)CC[C@]2(C)[C@H]3C(=O)C=C4[C@@H]5C[C@@](C)(C(=O)O)CC[C@]5(C)CC[C@@]4(C)[C@]3(C)CC[C@@H]12 [Carbenoxolone disodium salt] (20 µM) | label 0 |
| CO[C@H]1/C=C/O[C@@]2(C)Oc3c(C)c(O)c4c(O)c(c(/C=N/N5CCN(C6CCCC6)CC5)c(O)c4c3C2=O)NC(=O)/C(C)=C\C=C\[C@H](C)[C@H](O)[C@@H](C)[C@@H](O)[C@@H](C)[C@H](OC(C)=O)[C@@H]1C [Rifapentine] (20 µM) | label 1 |
| O=C(O)c1cccnc1Nc1cccc(C(F)(F)F)c1 [Niflumic acid] (20 µM) | label 0 |
| CCCC(CCC)C(=O)O [Valproic acid] (20 µM) | label 0 |
| CN1CCCC(CC2c3ccccc3Sc3ccccc32)C1 (centres undefined) [Metixene hydrochloride] (20 µM) | label 0 |
| CNCCCC1c2ccccc2C=Cc2ccccc21 [Protriptyline hydrochloride] (20 µM) | label 0 |
| CCCSc1nc(N[C@@H]2C[C@H]2c2ccc(F)c(F)c2)c2nnn([C@@H]3C[C@H](OCCO)[C@@H](O)[C@H]3O)c2n1 [Ticagrelor] (20 µM) | label 0 |
| Cc1cc(N)c2ccccc2[n+]1CCCCCCCCCC[n+]1c(C)cc(N)c2ccccc21 [Dequalinium dichloride] (20 µM) | label 0 |
| O=C(c1ccccc1)c1ccc2n1CCC2C(=O)O (centres undefined) [Ketorolac tromethamine] (20 µM) | label 0 |
| CC(=O)[C@H]1CC[C@H]2[C@@H]3C[C@H](C)C4=CC(=O)CC[C@]4(C)[C@H]3[C@@H](O)C[C@]12C [Medrysone] (20 µM) | label 0 |
| CCC(C)C(C(=O)OCC[N+](C)(CC)CC)c1ccccc1 (centres undefined) [Valethamate bromide] (20 µM) | label 0 |

###

Below is a list of entries, each paired with its recorded fold change of 2-Phenylethylamine concentration value.
system: Ruminococcus gnavus DSM 108212; assay: fold change of 2-Phenylethylamine concentration vs plate DMSO controls (fold change (ratio)); higher = more amine produced, active = hit call of the paper (significant change in both replicates, either direction); conditions: incubation time: 27 h, anaerobic, 37 °C
Where a name gives a salt, the structure may show the parent alone.
property-label: fold change of 2-Phenylethylamine concentration

| molecule | tested-on | assay-result |
| --- | --- | --- |
| CC(=O)Oc1ccc(C(=C2CCCCC2)c2ccc(OC(C)=O)cc2)cc1 [Cyclofenil] (20 µM) | Ruminococcus gnavus DSM 108212 | 0.942 |
| CC(C(=O)O)c1ccc(N2Cc3ccccc3C2=O)cc1 (centres undefined) [Indoprofen] (20 µM) | Ruminococcus gnavus DSM 108212 | 1.11 |
| CN1C(C(=O)Nc2ccccn2)=C(O)c2sccc2S1(=O)=O [Tenoxicam] (20 µM) | Ruminococcus gnavus DSM 108212 | 0.959 |
| O=C(O)c1ccccc1Nc1cc(Cl)ccc1C(=O)O [Lobenzarit disodium] (20 µM) | Ruminococcus gnavus DSM 108212 | 1.01 |
| CN1CCC(=C2c3ccccc3Sc3ccccc32)CC1 [Pimethixene maleate] (20 µM) | Ruminococcus gnavus DSM 108212 | 0.865 |
| CC1CS(=O)(=O)CCN1/N=C/c1ccc([N+](=O)[O-])o1 (centres undefined) [Nifurtimox] (20 µM) | Ruminococcus gnavus DSM 108212 | 1.03 |
| Cc1cc(C2CCCCC2)n(O)c(=O)c1 [Ciclopirox ethanolamine] (20 µM) | Ruminococcus gnavus DSM 108212 | 0.976 |
| O=c1[nH]c(=O)n(C2CCCO2)cc1F (centres undefined) [Tegafur] (20 µM) | Ruminococcus gnavus DSM 108212 | 1.03 |
| CCn1cc(C(=O)O)c(=O)c2cnc(N3CCCC3)nc21 [Piromidic acid] (20 µM) | Ruminococcus gnavus DSM 108212 | 1.09 |

###

system: Clostridium sporogenes DSM 1664; experiment: growth (OD595) fold change vs plate DMSO controls (fold change (ratio)); higher = more growth; settings: incubation time: 27 h, anaerobic, 37 °C
Where a name gives a salt, the structure may show the parent alone.

| molecule | growth |
| --- | --- |
| O=C(O)c1cc(/N=N/c2ccc(S(=O)(=O)Nc3ccccn3)cc2)ccc1O [Sulfasalazine] (20 µM) | 0.986 |
| CC(Cc1cccc(C(F)(F)F)c1)NCCOC(=O)c1ccccc1 (centres undefined) [Benfluorex] (20 µM) | 1.08 |
| CNS(=O)(=O)Cc1ccc2[nH]cc(CCN(C)C)c2c1 [Sumatriptan succinate] (20 µM) | 1.11 |
| CC[N+](C)(C)Cc1ccccc1Br [Bretylium tosylate] (20 µM) | 1.03 |

###

Below is a list of entries, each paired with its recorded growth value.
test system: Clostridium sporogenes DSM 1664; test: growth (OD595) fold change vs plate DMSO controls (fold change (ratio)); higher = more growth; settings: incubation time: 27 h, anaerobic, 37 °C
Counter-ions that a name gives are not always drawn.
property-label: growth

| compound | assay-result |
| --- | --- |
| CCOc1ccc(Cc2nccc3cc(OCC)c(OCC)cc23)cc1OCC [Ethaverine hydrochloride] (20 µM) | 0.848 |
| CN1CCN(CCCN2c3ccccc3Sc3ccc(C(F)(F)F)cc32)CC1 [Trifluoperazine dihydrochloride] (20 µM) | 1.25 |
| CC[C@@H]([C@H](C)O)n1ncn(-c2ccc(N3CCN(c4ccc(OC[C@@H]5CO[C@@](Cn6cncn6)(c6ccc(F)cc6F)C5)cc4)CC3)cc2)c1=O [Posaconazole hydrate] (20 µM) | 0.942 |

###

test system: Ruminococcus gnavus DSM 108212; experiment: growth (OD595) fold change vs plate DMSO controls (fold change (ratio)); higher = more growth; settings: incubation time: 27 h, anaerobic, 37 °C
Counter-ions that a name gives are not always drawn.
property-label: growth

| molecule | property-label | assay-result |
| --- | --- | --- |
| CN1CCN2c3ccccc3Cc3ccccc3C2C1 (stereo not given) [Mianserine hydrochloride] (20 µM) | growth | 0.931 |
| CN(C)CC/C=C1/c2ccccc2COc2ccc(CC(=O)O)cc21 [Olopatadine hydrochloride] (20 µM) | growth | 0.955 |
| CCc1c(C)[nH]c2c1C(=O)C(CN1CCOCC1)CC2 (stereo not given) [Molindone hydrochloride] (20 µM) | growth | 1.1 |
| CC(=O)[C@H]1CC[C@H]2[C@@H]3CCC4=CC(=O)CC[C@]4(C)[C@H]3CC[C@]12C [Progesterone] (20 µM) | growth | 0.651 |
| NC(N)=Nc1nc(CSCCN/C=N/S(=O)(=O)c2ccc(Br)cc2)cs1 [Ebrotidine] (20 µM) | growth | 1.02 |
| COc1cccc2c1C(=O)c1c(O)c3c(c(O)c1C2=O)C[C@@](O)(C(C)=O)C[C@@H]3O[C@H]1C[C@H](N)[C@H](O)[C@H](C)O1 [Daunorubicin hydrochloride] (20 µM) | growth | 1.13 |
| CN(C)CCC=C1c2ccccc2C=Cc2ccccc21 [Cyclobenzaprine hydrochloride] (20 µM) | growth | 0.869 |
| N=C(N)NCc1cccc(I)c1 [Iobenguane sulfate] (20 µM) | growth | 0.721 |
| CN(C)CCC[C@@]1(c2ccc(F)cc2)OCc2cc(C#N)ccc21 [Escitalopram oxalate] (20 µM) | growth | 0.828 |
| Clc1ccc2nsnc2c1NC1=NCCN1 [Tizanidine hydrochloride] (20 µM) | growth | 0.103 |
| C[C@H](CCC(=O)O)[C@H]1CC[C@H]2[C@@H]3C(=O)C[C@@H]4CC(=O)CC[C@]4(C)[C@H]3CC(=O)[C@]12C [Dehydrocholic acid] (20 µM) | growth | 0.872 |
| CCOC(=O)[C@H](CCc1ccccc1)N[C@@H](C)C(=O)N1C(=O)N(C)C[C@H]1C(=O)O [Imidapril hydrochloride] (20 µM) | growth | 1.2 |
| Cc1noc(NS(=O)(=O)c2ccc(N)cc2)c1C [Sulfisoxazole] (20 µM) | growth | 1.13 |
| Cc1oncc1C(=O)Nc1ccc(C(F)(F)F)cc1 [Leflunomide] (20 µM) | growth | 0.971 |
| C[C@H](Cc1cc2c(c(C(N)=O)c1)N(CCCO)CC2)NCCOc1ccccc1OCC(F)(F)F [Silodosin] (20 µM) | growth | 1.11 |
